# assay-name: pKa from 31P chemical shift as a function of pH
# Type: physicochemical
# experimental-parameters: calculated from phosphorus-31 chemical shifts
Kindly state pKa2 for each of the entries shown.
Please reply with the value in numeric form only.

Request the reported pKa2 associated with `N.N.O=P1(O)OP(=O)(O)[O][Pt]([OH])([OH])[O]1`
4.7

`NCCN.O=P([O-])(O)OP(=O)([O-])O.[Pt+2]` ?
4.4

`N.N.O=P1(O)[O][Pt][O]P(=O)(O)O1` ?
4.7

`NC1CCCCC1N.O=P([O-])(O)OP(=O)([O-])O.[Pt+2]` ?
4.4

`NCCN.O=P([O-])(O)OP(=O)([O-])O.[OH-].[OH-].[Pt+4]` ?
4.3
